Test system: IGROV1 ovarian
assay-overview: NCI-60 one-dose screen, 48 h (100 = growth as untreated, 0 = no growth, -100 = all killed)
condition-details: 10 µM unless noted
Compounds without any hit were thinned out: in the full panel of roughly 83,000, 20% have a hit.
# key: entry, value: growth
Give just the number in %; leave the unit off.

Solved entries (count: 3):
[[record]]
molecule = "C#CCOc1cc(N(CC)CC)ccc1C(C(=O)NC(C)(C)C)N(C(=O)C1CCc2cc(F)ccc2O1)c1ccc(F)c(Cl)c1 (stereo not drawn)"
target_under_test = "IGROV1 ovarian"
units_of_measure = "%"
quantitative_result = 70.5

[[record]]
molecule = "Cc1cc2nc3c4ccccc4n(CC4=NCCN4)c3nc2cc1C"
target_under_test = "IGROV1 ovarian"
units_of_measure = "%"
quantitative_result = 16.1

[[record]]
molecule = "COc1ccc(NC(=O)[C@H](C)N)cc1C(=O)Nc1cccc(C2CC(=O)c3c(cc(OC)c(OC)c3OC)O2)c1 (stereo partly drawn)"
target_under_test = "IGROV1 ovarian"
units_of_measure = "%"
quantitative_result = 98.7


Problem: For COc1cc(OC)cc(-c2cc3ccc(N(C)C)cc3c(=O)[nH]2)c1 , what is its reported growth?
Result: 29.3

Problem: Now this one: CCCCSc1nc(NCCc2c[nH]c3ccccc23)c(C#N)c(-c2ccc(F)cc2)n1
Result: 92.3

Problem: Please give the result for CCN(CC)c1ccc(/C=N/Nc2nc(-c3ccc(C)cc3)cs2)c(O)c1 too.
Result: 96.3

Problem: What about CC(=O)OC[C@@]1(C)C2CC[C@]3(C)C(CC=C4C5CC(C)(C)CC[C@]5(C(=O)Nc5ccc(F)cc5)CC[C@]43C)[C@@]2(C)C[C@@H](OC(C)=O)[C@@H]1OC(C)=O (stereo partly drawn) ?
Result: 51.9

Problem: Also check CC(C)CSc1nc(NCCc2c[nH]c3ccccc23)c(C#N)c(-c2ccc(Cl)cc2)n1
Result: 96.2

Where do the numbers come from? From PubChem BioAssay (NCI).
